Value source: paper PMC10180197

- Tested on: A549 cell line
- MEASUREMENT PROTOCOL: MTT cytotoxicity assay, A549
- Type: cell-based, human
- ASSAY SETUP: Homo sapiens; A549, 10 μΜ, 24 h; read-out: % Cell Toxicity 10 μΜ
VALUE TYPE: cytotoxicity at 10 µM (%)
Numbers only here, please. The scale is %.

Reference set (3 entries):
O=c1[nH]c(=S)[nH]c2nc(-c3ccc(Cl)cc3)cc(-c3ccc(Cl)cc3Cl)c12; 49.1
O=c1[nH]c(=S)[nH]c2nc(-c3ccccc3)cc(-c3ccc(Cl)cc3)c12; 48
O=C(/C=C/c1ccccc1)c1ccccc1 [Compound 1a, (E)-1,3-diphenylprop-2-en-1-one]; 41.8

We next turn to a different molecule, shown below.
Which measured cytotoxicity at 10 µM value corresponds to O=c1[nH]c(=S)[nH]c2nc(-c3ccccc3)cc(-c3ccccc3)c12 ?
56.4

###

Below, each entry is listed with its recorded viability at 24 h, 100 μM.
- MEASUREMENT PROTOCOL: MTT cell viability assay, HaCaT
- Format: cell-based, human
- ASSAY SETUP: human, HaCaT cells (epidermal keratinocyte cell line), 100 μΜ
Numbers only here, please. The scale is %.

COc1cc(C2Oc3cc([C@H]4Oc5cc(O)cc(O)c5C(=O)[C@@H]4O)ccc3OC2CO)ccc1O (some centres unmarked) [Silibinin, reference compound]; 14.9

Which measured viability at 24 h, 100 μM value corresponds to O=C(/C=C/c1ccc(Cl)cc1Cl)c1ccccc1 [Compound 1g] ?
2.1

###

Below, each entry is listed with its recorded cytotoxicity at 10 µM.
- Test system: A549 cell line
- MEASUREMENT PROTOCOL: MTT cytotoxicity assay, A549
- Assay type: cell-based, human
- ASSAY SETUP: Homo sapiens; A549, 10 μΜ, 24 h; read-out: % Cell Toxicity 10 μΜ
Numbers only here, please. The scale is %.

Reference set (7 entries):
O=C(/C=C/c1ccccc1)c1ccc(Cl)cc1; 49.2
O=c1[nH]c(=S)[nH]c2nc(-c3ccc(Cl)cc3)cc(-c3ccc(Cl)cc3)c12; 48.6
O=C(/C=C/c1ccc(Cl)cc1Cl)c1ccc(Cl)cc1; 49.1
O=C(/C=C/c1ccc(Cl)cc1)c1ccc(Cl)cc1; 48.9
O=C(/C=C/c1cccs1)c1ccc(Cl)cc1; 47.4
O=c1[nH]c(=S)[nH]c2nc(-c3ccc(Cl)cc3)cc(-c3ccccc3)c12; 47.9
O=c1[nH]c(=S)[nH]c2nc(-c3ccccc3)cc(-c3cccs3)c12; 49.4

Which measured cytotoxicity at 10 µM value corresponds to O=c1[nH]c(=S)[nH]c2nc(-c3ccc(Cl)cc3)cc(-c3cccs3)c12 ?
48.6

###

- SUBJECT OF TEST: soybean lipoxygenase (Glycine max, UniProt P08170)
- Construct: purchased Sigma Aldrich- Merck KGaA, Darmstadt, Germany
- Sequence (P08170 whole entry): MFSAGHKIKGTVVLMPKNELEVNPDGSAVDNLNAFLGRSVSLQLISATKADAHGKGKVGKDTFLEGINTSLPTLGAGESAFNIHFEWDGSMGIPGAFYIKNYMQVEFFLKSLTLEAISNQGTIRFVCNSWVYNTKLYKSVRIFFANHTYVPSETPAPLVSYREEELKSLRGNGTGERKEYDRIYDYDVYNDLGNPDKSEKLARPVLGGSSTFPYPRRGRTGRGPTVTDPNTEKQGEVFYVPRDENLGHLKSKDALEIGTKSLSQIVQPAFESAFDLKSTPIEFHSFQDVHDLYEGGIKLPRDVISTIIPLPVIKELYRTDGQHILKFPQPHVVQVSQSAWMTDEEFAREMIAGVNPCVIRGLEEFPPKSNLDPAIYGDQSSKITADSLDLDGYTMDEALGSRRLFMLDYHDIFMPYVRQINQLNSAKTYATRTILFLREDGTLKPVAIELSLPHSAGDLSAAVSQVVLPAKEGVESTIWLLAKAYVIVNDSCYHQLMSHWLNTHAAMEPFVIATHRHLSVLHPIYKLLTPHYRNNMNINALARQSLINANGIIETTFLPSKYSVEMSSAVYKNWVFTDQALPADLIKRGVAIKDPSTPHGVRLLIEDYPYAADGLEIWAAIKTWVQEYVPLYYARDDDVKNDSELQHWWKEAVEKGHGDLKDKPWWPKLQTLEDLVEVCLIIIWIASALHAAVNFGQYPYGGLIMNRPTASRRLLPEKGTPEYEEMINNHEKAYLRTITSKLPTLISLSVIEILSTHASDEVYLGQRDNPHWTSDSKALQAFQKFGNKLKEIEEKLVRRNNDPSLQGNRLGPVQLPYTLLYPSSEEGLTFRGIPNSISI
- MEASUREMENT PROTOCOL: Inhibition of soybean lipoxygenase
- Type: biochemical
- ASSAY SETUP: cells of the mixed column with μM; read-out: LOX IC50
VALUE TYPE: IC50
Quote the value and follow it with the unit of measurement.

Reference set (2 entries):
O=c1[nH]c(=S)[nH]c2nc(-c3ccccc3)cc(-c3cccs3)c12 [Compound 2c]; 68.5 µM
O=C(/C=C/c1cccs1)c1ccc(Cl)cc1 [Compound 1d]; 72.5 µM

Which measured IC50 value corresponds to O=c1[nH]c(=S)[nH]c2nc(-c3ccccc3)cc(-c3ccc(Cl)cc3Cl)c12 [Compound 2g] ?
54 µM

Queued: O=C(/C=C/c1ccc(Cl)cc1)c1ccccc1 [Compound 1e]
55.5 µM

Queued: O=c1[nH]c(=S)[nH]c2nc(-c3ccc(Cl)cc3)cc(-c3ccc(Cl)cc3)c12 [Compound 2f]
47.5 µM

Queued: O=c1[nH]c(=S)[nH]c2nc(-c3ccccc3)cc(-c3ccc(Cl)cc3)c12 [Compound 2e]
76 µM

Queued: O=c1[nH]c(=S)[nH]c2nc(-c3ccc(Cl)cc3)cc(-c3cccs3)c12 [Compound 2d]
70 µM

Queued: O=C(/C=C/c1ccc(Cl)cc1Cl)c1ccccc1 [Compound 1g]
17 µM

Queued: O=c1[nH]c(=S)[nH]c2nc(-c3ccccc3)cc(-c3ccccc3)c12 [Compound 2a]
42 µM

###

Below, each entry is listed with its recorded melting point.

Reference set (4 entries):
O=c1[nH]c(=S)[nH]c2nc(-c3ccccc3)cc(-c3cccs3)c12 [Compound 2c]; 260 to 262 °C
O=c1[nH]c(=S)[nH]c2nc(-c3ccc(Cl)cc3)cc(-c3ccc(Cl)cc3Cl)c12 [Compound 2h]; 274 to 276 °C
O=c1[nH]c(=S)[nH]c2nc(-c3ccc(Cl)cc3)cc(-c3cccs3)c12 [Compound 2d]; > 300 °C
O=C(/C=C/c1ccc(Cl)cc1Cl)c1ccccc1 [Compound 1g]; 68 to 70 °C

Which measured melting point value corresponds to O=c1[nH]c(=S)[nH]c2nc(-c3ccc(Cl)cc3)cc(-c3ccc(Cl)cc3)c12 [Compound 2f] ?
> 300 °C

Queued: O=c1[nH]c(=S)[nH]c2nc(-c3ccccc3)cc(-c3ccc(Cl)cc3Cl)c12 [Compound 2g]
> 300 °C

Queued: O=C(/C=C/c1cccs1)c1ccccc1 [Compound 1c]
58 to 60 °C

Queued: O=c1[nH]c(=S)[nH]c2nc(-c3ccc(Cl)cc3)cc(-c3ccccc3)c12 [Compound 2b]
> 300 °C

Queued: O=C(/C=C/c1ccc(Cl)cc1)c1ccc(Cl)cc1 [Compound 1f]
160 to 162 °C

Queued: O=c1[nH]c(=S)[nH]c2nc(-c3ccccc3)cc(-c3ccc(Cl)cc3)c12 [Compound 2e]
> 300 °C

Queued: O=c1[nH]c(=S)[nH]c2nc(-c3ccccc3)cc(-c3ccccc3)c12 [Compound 2a]
> 300 °C

###

- MEASUREMENT PROTOCOL: Experimental determination of lipophilicity as RM values (RP-TLC)
- Format: physicochemical
- ASSAY SETUP: methanol/water 70/30 v/v, 24 °C, SD < 10%
# label = bin(measured RM), where bins are lowest: < -0.8; middle: ≥ -0.8 and < -0.5; highest: ≥ -0.5

O=C(/C=C/c1ccc(Cl)cc1Cl)c1ccc(Cl)cc1; highest
O=C(/C=C/c1cccs1)c1ccccc1; middle
O=c1[nH]c(=S)[nH]c2nc(-c3ccccc3)cc(-c3ccc(Cl)cc3Cl)c12; middle

Could you place O=C(/C=C/c1ccc(Cl)cc1Cl)c1ccccc1 in its proper category? Many thanks.
highest

###

- MEASUREMENT PROTOCOL: MTT cell viability assay, HaCaT
- Type: cell-based, human
- ASSAY SETUP: human, HaCaT cells (epidermal keratinocyte cell line), 1 μΜ
VALUE TYPE: viability at 24 h, 1 μM (%)
Numbers only here, please. The scale is %.

Which measured viability at 24 h, 1 μM value corresponds to O=c1[nH]c(=S)[nH]c2nc(-c3ccc(Cl)cc3)cc(-c3ccc(Cl)cc3)c12 ?
73.4

###

Below, each entry is listed with its recorded cytotoxicity at 50 µM.
- System: A549 cell line
- MEASUREMENT PROTOCOL: MTT cytotoxicity assay, A549
- Type: cell-based, human
- ASSAY SETUP: Homo sapiens; A549, 50 μΜ, 24 h; read-out: % Cell Toxicity 50 μΜ
Numbers only here, please. The scale is %.

Reference set (4 entries):
O=C(/C=C/c1ccc(Cl)cc1)c1ccc(Cl)cc1; 67.6
O=c1[nH]c(=S)[nH]c2nc(-c3ccccc3)cc(-c3ccc(Cl)cc3Cl)c12; 79.1
O=C(/C=C/c1ccc(Cl)cc1)c1ccccc1; 6.8
O=c1[nH]c(=S)[nH]c2nc(-c3ccc(Cl)cc3)cc(-c3cccs3)c12; 100

We next turn to a different molecule, shown below.
Which measured cytotoxicity at 50 µM value corresponds to O=c1[nH]c(=S)[nH]c2nc(-c3ccccc3)cc(-c3cccs3)c12 ?
63.6

###

- MEASUREMENT PROTOCOL: Experimental determination of lipophilicity as RM values (RP-TLC)
- Format: physicochemical
- ASSAY SETUP: methanol/water 70/30 v/v, 24 °C, SD < 10%
Below, each entry is listed with its recorded RM.
Hey, just send me the number, nothing else.

O=C(/C=C/c1ccc(Cl)cc1)c1ccccc1; −0.50

We next turn to a different molecule, shown below.
Which measured RM value corresponds to O=c1[nH]c(=S)[nH]c2nc(-c3ccccc3)cc(-c3ccccc3)c12 ?
−0.95

###

- MEASUREMENT PROTOCOL: Experimental determination of lipophilicity as RM values (RP-TLC)
- Type: physicochemical
- ASSAY SETUP: methanol/water 70/30 v/v, 24 °C, SD < 10%
VALUE TYPE: RM

O=C(/C=C/c1ccccc1)c1ccccc1 [Compound 1a, (E)-1,3-diphenylprop-2-en-1-one]; −0.57

Which measured RM value corresponds to O=c1[nH]c(=S)[nH]c2nc(-c3ccc(Cl)cc3)cc(-c3cccs3)c12 [Compound 2d] ?
−0.80

Queued: O=c1[nH]c(=S)[nH]c2nc(-c3ccccc3)cc(-c3cccs3)c12 [Compound 2c]
−0.83

Queued: O=C(/C=C/c1cccs1)c1ccc(Cl)cc1 [Compound 1d]
−0.46

Queued: O=C(/C=C/c1ccc(Cl)cc1)c1ccc(Cl)cc1 [Compound 1f]
−0.24

Queued: O=c1[nH]c(=S)[nH]c2nc(-c3ccccc3)cc(-c3ccc(Cl)cc3)c12 [Compound 2e]
−0.87

Queued: O=c1[nH]c(=S)[nH]c2nc(-c3ccc(Cl)cc3)cc(-c3ccc(Cl)cc3)c12 [Compound 2f]
−0.91
